Tested on: NCI/ADR-RES ovarian
Assay: NCI-60 one-dose screen, 48 h
Conditions: 10 µM unless noted
About 83,000 compounds went through this panel and 20% of them were active in at least one assay; those are over-represented in the sample as a whole. Calls of active or inactive are those of the source. The calls were made as follows: active = growth percent below 10; inactive = the rest.
Could you please pick one outcome from this set? active, inactive

# example entries with known answers
[
  {
    "Compound": "COC(=O)c1c2c(c(C)[n+]([O-])c1C)C(=O)C(NCc1ccccc1)=CC2=O",
    "Class": "active"
  },
  {
    "Compound": "COc1ccc(-c2nc(SCC(=O)Nc3nc4ccc(C)cc4s3)[nH]c(=O)c2C#N)cc1OC",
    "Class": "inactive"
  },
  {
    "Compound": "CC(=O)N1N=C(c2ccc(Nc3nc(Nc4ccc(F)cc4)nc(Nc4ccc(F)cc4)n3)cc2)CC1c1ccc(N(C)C)cc1 (stereo not given)",
    "Class": "inactive"
  },
  {
    "Compound": "CCOC(=O)c1ccc[nH]1",
    "Class": "inactive"
  },
  {
    "Compound": "COC12C=C/C(=C(/C(=O)OCc3csc(SC)n3)C(=O)CCCCCCCCC3(OC)C=C/C(=C(/C(=O)OCc4cnc(SC)s4)C(=O)CCCCCCCC1)O3)O2 (stereo not given)",
    "Class": "inactive"
  },
  {
    "Compound": "O=C(Nc1cc(Cl)ccc1O)c1ccccc1Nc1ccnc(C(F)(F)F)c1",
    "Class": "active"
  },
  {
    "Compound": "N=C(N)c1ccc(-c2ccc(-c3ccccc3)o2)o1",
    "Class": "inactive"
  },
  {
    "Compound": "O=C(NCCN1CCOCC1)OCc1ccc2c(Cl)cc(Cl)c(O)c2n1",
    "Class": "active"
  },
  {
    "Compound": "Cc1ccc(S(=O)(=O)c2nc(-c3ccccc3)oc2SCC(N)=O)cc1",
    "Class": "inactive"
  },
  {
    "Compound": "Cc1ccc(Cc2cnc(NC(=O)/C=C/c3ccc(C)o3)s2)cc1",
    "Class": "inactive"
  }
]

Given Cc1nc2sc(C(=O)Nc3cccc4ccccc34)c(N)c2cc1C(=O)c1ccccc1 , state the outcome it received in this test.
inactive

Given CCCC(O)Cn1ncc(C(=O)OCC)c1NC(=O)NCc1cccc(C(F)(F)F)c1 (stereo not given) , state the outcome it received in this test.
inactive

Given CCOC(=O)C1=C(CCl)N(C)C(=O)NC1c1ccc2c(c1)OCO2 (stereo not given) , state the outcome it received in this test.
inactive

Given O=C(c1c[nH]c2ccccc12)c1n[nH]c(=S)n1-c1ccc([N+](=O)[O-])cc1 , state the outcome it received in this test.
inactive

Given COc1ccc(C2[C@@H](Cl)C(=O)N2c2cc(OC)c(OC)c(OC)c2)cc1Cl (stereo not given in full) , state the outcome it received in this test.
inactive

Given CCN(CC)CCCNc1cc(OC)c(OC)c2cccnc12 , state the outcome it received in this test.
inactive

Given CC1(/C=C/c2ccc(-c3ccccc3)cc2)CCn2cnc3ncnc(c32)N1O (stereo not given) , state the outcome it received in this test.
active

Given Nc1c(Br)cc2c(c1Br)Cc1cc([N+](=O)[O-])ccc1-2 , state the outcome it received in this test.
inactive

Given O=S(=O)(N=C1C(Cl)=C(Cl)C(=NS(=O)(=O)c2ccccc2)C(Cl)=C1Cl)c1ccccc1 , state the outcome it received in this test.
inactive

Given C=C1C(=O)O[C@H]2[C@H]1CC/C(CNC(=O)Cc1c[nH]c3ccccc13)=C\CC[C@@]1(C)O[C@@H]21 , state the outcome it received in this test.
inactive

Given COc1ccc(C(=O)C/C(=C\c2ccc(O)c(OC)c2)C(=O)NN)cc1 , state the outcome it received in this test.
inactive

Given COc1ccc(CNc2ccc3nc(NC(=O)CN4CCCCCC4)sc3c2)cc1 , state the outcome it received in this test.
inactive

Given N#C/C(=C\c1ccc(-c2cccc(Cl)c2)o1)C(=O)Nc1ncc(Cc2ccc(Cl)cc2)s1 , state the outcome it received in this test.
inactive

Given Cc1cc(C(=O)CCCC(=O)c2cc(C)c(O)c(C)c2)cc(C)c1O , state the outcome it received in this test.
inactive

Given CN1CCN(Cc2ccc(NC(=O)c3cncc(C#Cc4cnc(N)cc4C#N)c3)cc2C(F)(F)F)CC1 , state the outcome it received in this test.
inactive

Given CCN1CCN(CCNc2nccc(-c3c(-c4ccc(F)c(O)c4)nc4occn34)n2)S1(=O)=O , state the outcome it received in this test.
inactive

Given Cc1ccc(NC(=O)c2sc3nc(C)c(C(O)c4ccccc4)cc3c2N)cc1 (stereo not given) , state the outcome it received in this test.
active

Given Cc1cccc(N=Nc2cccc(C)c2)c1 , state the outcome it received in this test.
inactive

Value source: PubChem BioAssay (NCI)
